- experimental target: CLK3 (human) (UniProt P49761)
- Sequence (P49761 whole entry, looked up): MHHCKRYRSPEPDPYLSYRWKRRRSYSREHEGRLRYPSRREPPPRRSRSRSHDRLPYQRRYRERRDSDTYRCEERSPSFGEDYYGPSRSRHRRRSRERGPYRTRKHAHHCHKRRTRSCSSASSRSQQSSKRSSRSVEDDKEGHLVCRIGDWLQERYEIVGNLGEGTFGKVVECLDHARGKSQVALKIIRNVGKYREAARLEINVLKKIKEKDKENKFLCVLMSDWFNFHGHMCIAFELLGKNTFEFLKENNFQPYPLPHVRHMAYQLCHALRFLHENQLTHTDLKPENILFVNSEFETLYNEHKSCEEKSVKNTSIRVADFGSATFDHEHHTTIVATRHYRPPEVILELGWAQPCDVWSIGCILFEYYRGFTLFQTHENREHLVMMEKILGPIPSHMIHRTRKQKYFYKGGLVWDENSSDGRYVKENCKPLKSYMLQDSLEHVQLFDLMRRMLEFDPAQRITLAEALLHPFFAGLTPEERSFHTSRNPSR
- run description: KINOMEscan competition binding
- experimental context: compound 10.0 µM
endpoint: kinase still bound, per cent of control

# compound structure string, kinase still bound, per cent of control
data = [
    ("NC(=O)c1ccc(-c2cc(C(N)=O)c(N)c(-c3ccc(S(N)(=O)=O)cc3)c2)cc1", "no effect (inactive)"),
    ("Cc1cc(Nc2cc(N3CCN(C)CC3)nc(Sc3ccc(NC(=O)C4CC4)cc3)n2)[nH]n1", "no effect (inactive)"),
    ("CCS(=O)(=O)Nc1ccc2c(c1)[C@H](/C(=N/c1ccc(CN3CCCCC3)cc1)c1ccccc1)C(=O)N2", "2.3%"),
    ("CN(C)c1ccc(-c2cc3ncccc3c(NCCCCN)n2)cc1", "no effect (inactive)"),
]

Please provide the recorded kinase still bound, per cent of control for Nc1ncnc2c1c(-c1cccc(O)c1)cn2C1CCNCC1 , tested on CLK3 (human) (UniProt P49761).
no effect (inactive)

====

- experimental target: RET (human)
- run description: KINOMEscan competition binding
- experimental context: compound 10.0 µM
endpoint: kinase still bound, per cent of control

Below, 5 compounds whose answers are already recorded.
# compound structure string, kinase still bound, per cent of control
records = [
    ("CC(=O)c1c(-c2ccncc2)[nH]c(-c2ccncc2)c1C", "no effect (inactive)"),
    ("O=C(Nc1n[nH]c2nc(-c3cccc(O)c3)ccc12)C1CC1", "no effect (inactive)"),
    ("Cc1ccc(O)cc1Nc1ccnc(Nc2cccc(C(N)=O)c2)n1", "0%"),
    ("N#Cc1ccc(-c2cnc3[nH]cc(NC(=O)c4cccnc4)c3c2)cc1", "no effect (inactive)"),
    ("NC(=O)c1ccc(Nc2cc(-c3ccc(F)cc3)[nH]n2)cc1", "no effect (inactive)"),
]

Could you tell me which kinase still bound, per cent of control is on file for Cc1cc(Nc2cc(N3CCN(C)CC3)nc(Sc3ccc(NC(=O)C4CC4)cc3)n2)[nH]n1 ?
0%

====

- experimental target: KIT (human) (UniProt P10721)
- Sequence (P10721 whole entry, looked up): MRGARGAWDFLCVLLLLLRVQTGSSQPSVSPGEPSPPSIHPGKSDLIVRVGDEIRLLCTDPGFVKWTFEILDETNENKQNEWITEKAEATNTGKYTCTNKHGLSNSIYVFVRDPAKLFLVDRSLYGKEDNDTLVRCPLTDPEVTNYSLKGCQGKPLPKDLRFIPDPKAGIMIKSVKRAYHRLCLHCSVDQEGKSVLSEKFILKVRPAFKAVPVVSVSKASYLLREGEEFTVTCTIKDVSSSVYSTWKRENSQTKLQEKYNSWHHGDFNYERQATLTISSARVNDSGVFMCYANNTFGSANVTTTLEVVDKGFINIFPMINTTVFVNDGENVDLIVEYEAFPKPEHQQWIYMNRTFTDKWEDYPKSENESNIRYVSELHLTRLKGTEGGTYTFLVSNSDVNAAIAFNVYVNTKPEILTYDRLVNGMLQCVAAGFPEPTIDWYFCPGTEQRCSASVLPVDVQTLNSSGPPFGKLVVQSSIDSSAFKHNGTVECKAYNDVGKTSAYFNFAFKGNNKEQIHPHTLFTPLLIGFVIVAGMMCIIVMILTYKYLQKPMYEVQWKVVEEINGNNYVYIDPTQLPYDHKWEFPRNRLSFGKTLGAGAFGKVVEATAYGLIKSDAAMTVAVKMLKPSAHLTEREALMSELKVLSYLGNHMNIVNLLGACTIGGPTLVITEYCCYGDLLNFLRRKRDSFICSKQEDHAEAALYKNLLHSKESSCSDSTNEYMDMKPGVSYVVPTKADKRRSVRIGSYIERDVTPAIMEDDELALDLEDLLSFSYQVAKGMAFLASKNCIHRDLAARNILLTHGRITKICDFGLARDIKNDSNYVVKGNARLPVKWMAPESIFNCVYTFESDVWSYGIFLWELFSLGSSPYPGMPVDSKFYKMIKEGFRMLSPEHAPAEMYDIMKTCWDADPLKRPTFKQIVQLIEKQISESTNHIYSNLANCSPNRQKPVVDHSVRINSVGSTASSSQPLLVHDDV
- run description: KINOMEscan competition binding
- experimental context: compound 10.0 µM
endpoint: kinase still bound, per cent of control

Here's what some known entries look like.
# compound structure string, experimental target, data value
measured = [
    ("CC(=O)c1c(-c2ccncc2)[nH]c(-c2ccncc2)c1C", "KIT (human) (UniProt P10721)", "no effect (inactive)"),
    ("CCS(=O)(=O)Nc1ccc2c(c1)[C@H](/C(=N/c1ccc(CN3CCCCC3)cc1)c1ccccc1)C(=O)N2", "KIT (human) (UniProt P10721)", "0.1%"),
    ("c1ccc(-c2n[nH]cc2-c2ccnc3ccccc23)nc1", "KIT (human) (UniProt P10721)", "no effect (inactive)"),
    ("N#Cc1ccc(-c2cnc3[nH]cc(NC(=O)c4cccnc4)c3c2)cc1", "KIT (human) (UniProt P10721)", "no effect (inactive)"),
    ("NC(=O)c1ccc(Nc2cc(-c3ccc(F)cc3)[nH]n2)cc1", "KIT (human) (UniProt P10721)", "0%"),
    ("Nc1ncnc2c1c(-c1cccc(O)c1)cn2C1CCNCC1", "KIT (human) (UniProt P10721)", "0%"),
    ("Cc1ccc(O)cc1Nc1ccnc(Nc2cccc(C(N)=O)c2)n1", "KIT (human) (UniProt P10721)", "0%"),
]

Here is another compound to look at.
# kinase still bound, per cent of control lookup, item O=C1Nc2ccccc2/C1=C/c1ccc[nH]1
0%
